As shown below, each of these compounds has a reported inhibition at 10 µM value.
# measurement target: human Edg-1(S1P1) (Homo sapiens, UniProt P21453)
# Construct: expressed in transfected cells; host or cells: HEK-293
# Sequence (P21453 whole entry): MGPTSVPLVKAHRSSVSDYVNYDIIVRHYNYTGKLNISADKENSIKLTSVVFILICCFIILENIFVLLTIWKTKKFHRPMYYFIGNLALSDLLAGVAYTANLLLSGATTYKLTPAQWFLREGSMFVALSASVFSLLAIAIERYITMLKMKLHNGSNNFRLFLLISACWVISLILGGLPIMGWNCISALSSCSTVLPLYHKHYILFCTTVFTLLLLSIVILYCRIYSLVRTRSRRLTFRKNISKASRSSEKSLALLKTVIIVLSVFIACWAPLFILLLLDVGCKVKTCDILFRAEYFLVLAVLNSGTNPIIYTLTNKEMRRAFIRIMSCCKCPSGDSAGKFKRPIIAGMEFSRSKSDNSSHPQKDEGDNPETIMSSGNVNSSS
# test description: Cell system binding test: inhibition of [3H]-S1P binding to Edg-1(S1P1) gene transferred HEK-293 cells
# experimental parameters: 10 μM compound, [3H]-S1P 10 nM, read-out: Cell system binding test % inhibition (10 μM)

[
  {
    "compound": "CCn1c(SCCOc2ccccc2)nnc1[C@@H](C)NS(=O)(=O)c1ccc(Cl)cc1 [Compound 23]",
    "inhibition at 10 µM": "84.4%"
  },
  {
    "compound": "CCOc1nnc([C@@H](C)NS(=O)(=O)c2ccc(I)cc2)n1CC [Compound 435]",
    "inhibition at 10 µM": "93.7%"
  }
]

Query block: Look up and state reported inhibition at 10 µM for CCC#CCSc1nnc([C@@H](C)NS(=O)(=O)c2ccc(Cl)cc2)n1CC [Compound 17]
Result block: 85.5%

Query block: # return recorded inhibition at 10 µM for input CCn1c(OC)nnc1[C@@H](C)NS(=O)(=O)c1ccc(F)cc1F [Compound 279]
Result block: 101%

Query block: Supply reported inhibition at 10 µM belonging to this compound: CCn1c(OC)nnc1[C@@H](C)NS(=O)(=O)Cc1ccccc1 [Compound 244]
Result block: 92.3%

Query block: Supply recorded inhibition at 10 µM for CCn1c(OC)nnc1[C@@H](C)NS(=O)(=O)c1cc(Cl)c(Cl)s1 [Compound 220] here.
Result block: 97.2%

Query block: Specify measured inhibition at 10 µM for CCn1c(OC)nnc1[C@H](C)NS(=O)(=O)c1ccc(Cl)c([N+](=O)[O-])c1 [Compound 209] .
Result block: 91.4%

Query block: Specify reported inhibition at 10 µM for the compound shown: CCn1c(OCCCO)nnc1[C@@H](C)NS(=O)(=O)c1ccc(Cl)cc1 [Compound 191]
Result block: 97.1%
